Origin of measurements: the supplement of paper PMC10307832

Test system: NCI-H2228
assay method text: relative viability (nuclei count vs DMSO), 5 days (fraction); higher = more cells survive
conditions used: first compound 0.3162 µM
Consider the cut-off 0.7. If the recorded relative viability is strictly smaller, the label is TRUE; if not, the label is FALSE.

CC(C)Oc1cc(Nc2nc(N[C@@H](C)c3ccc(F)cn3)ncc2Cl)n[nH]1 [AZ23] + Cc1nc(NC(=O)N2CCC[C@H]2C(N)=O)sc1-c1ccnc(C(C)(C)C(F)(F)F)c1 [Alpelisib] (partner 2 µM) = TRUE
CC(C)Oc1cc(Nc2nc(N[C@@H](C)c3ccc(F)cn3)ncc2Cl)n[nH]1 [AZ23] + COc1cc2c(Oc3ccc(NC(=O)C4(C(=O)Nc5ccc(F)cc5)CC4)cc3F)ccnc2cc1OCCCN1CCOCC1 [Foretinib] (partner 0.25 µM) = FALSE
CC(C)Oc1cc(Nc2nc(N[C@@H](C)c3ccc(F)cn3)ncc2Cl)n[nH]1 [AZ23] + Cc1nc(Nc2ncc(C(=O)Nc3c(C)cccc3Cl)s2)cc(N2CCN(CCO)CC2)n1 [Dasatinib] (partner 0.075 µM) = TRUE

Data request: Please determine if CC(C)Oc1cc(Nc2nc(N[C@@H](C)c3ccc(F)cn3)ncc2Cl)n[nH]1 [AZ23] + O=C(CCCCCCC(=O)Nc1ccccc1)NO [Vorinostat] (partner 1 µM) is below 0.7 in terms of relative viability.
Data returned: TRUE

----------
Measured relative viability values are reported for all entries that follow.
System: 201T
assay method text: relative viability (nuclei count vs DMSO), 5 days (fraction); higher = more cells survive
conditions used: first compound 0.8 µM
Give your answer as a number; write no unit.

CCCCCCCCCCCC1=C(O)C(=O)C=C(O)C1=O [Embelin] + CC(=O)Nc1cccc(-n2c(=O)n(C3CC3)c(=O)c3c(Nc4ccc(I)cc4F)n(C)c(=O)c(C)c32)c1 [Trametinib] (partner 0.02 µM) = 0.726
CCCCCCCCCCCC1=C(O)C(=O)C=C(O)C1=O [Embelin] + Nc1ncn([C@H]2C[C@H](O)[C@@H](CO)O2)c(=O)n1 [Decitabine] (partner 2 µM) = 0.884
CCCCCCCCCCCC1=C(O)C(=O)C=C(O)C1=O [Embelin] + O=C(c1cc(Cc2n[nH]c(=O)c3ccccc23)ccc1F)N1CCN(C(=O)C2CC2)CC1 [Olaparib] (partner 8 µM) = 0.875
CCCCCCCCCCCC1=C(O)C(=O)C=C(O)C1=O [Embelin] + O=C(CCCCCCC(=O)Nc1ccccc1)NO [Vorinostat] (partner 1 µM) = 1.01

Continue with the compound presented below.
Data request: Sample CCCCCCCCCCCC1=C(O)C(=O)C=C(O)C1=O [Embelin] + CC(C)C[C@H](NC(=O)[C@H](Cc1ccccc1)NC(=O)c1cnccn1)B(O)O [Bortezomib] (partner 0.002 µM) — what was its relative viability?
Data returned: 1.17

----------
Tested on: 201T
assay method text: relative viability (nuclei count vs DMSO), 5 days (fraction); higher = more cells survive
conditions used: first compound 0.04 µM
readout kind: relative viability
The reply should be a number, written without any unit.

Guide cases for relative viability, answers given:
Clc1ccc(Nc2nnc(Cc3ccncc3)c3ccccc23)cc1 [Vatalanib] + N=C(N)NC(=N)NCCc1ccccc1 [Phenformin] (partner 250 µM) = 0.436
COc1cc(N2CCC(C(N)=O)CC2)ccc1Nc1nc(N)c(Cl)c(Nc2ccccc2S(=O)(=O)C(C)C)n1 [HG-5-88-01] + CC(=O)Nc1cccc(-n2c(=O)n(C3CC3)c(=O)c3c(Nc4ccc(I)cc4F)n(C)c(=O)c(C)c32)c1 [Trametinib] (partner 0.02 µM) = 0.697

Data request: Endpoint output: relative viability of Clc1ccc(Nc2nnc(Cc3ccncc3)c3ccccc23)cc1 [Vatalanib] + COc1cc2c(Oc3ccc(NC(=O)C4(C(=O)Nc5ccc(F)cc5)CC4)cc3F)ccnc2cc1OCCCN1CCOCC1 [Foretinib] (partner 0.25 µM) . Value?
Data returned: 1.17

Data request: What relative viability value was documented for this compound, Clc1ccc(Nc2nnc(Cc3ccncc3)c3ccccc23)cc1 [Vatalanib] + Cc1cc(Nc2cc(N3CCN(C)CC3)nc(Sc3ccc(NC(=O)C4CC4)cc3)n2)n[nH]1 [Tozasertib] (partner 0.1 µM) ?
Data returned: 0.932

----------
Entries and their measured relative viability follow.
Tested on: A549
assay method text: relative viability (nuclei count vs DMSO), 5 days (fraction); higher = more cells survive
conditions used: first compound 0.01 µM
Write no unit; give the number alone.

Below, 2 compounds whose answers are already recorded.
CC(C)Oc1cc(Nc2nc(N[C@@H](C)c3ccc(F)cn3)ncc2Cl)n[nH]1 [AZ23] + CS(=O)(=O)N1CCN(Cc2cc3nc(-c4cccc5[nH]ncc45)nc(N4CCOCC4)c3s2)CC1 [Pictilisib] (partner 1 µM) = 0.586
CC(C)Oc1cc(Nc2nc(N[C@@H](C)c3ccc(F)cn3)ncc2Cl)n[nH]1 [AZ23] + COc1cc2c(Oc3ccc(NC(=O)C4(C(=O)Nc5ccc(F)cc5)CC4)cc3F)ccnc2cc1OCCCN1CCOCC1 [Foretinib] (partner 0.25 µM) = 1.01

Data request: I'd like to know its relative viability. The compound in question is CC(C)Oc1cc(Nc2nc(N[C@@H](C)c3ccc(F)cn3)ncc2Cl)n[nH]1 [AZ23] + CS(=O)(=O)CCNCc1ccc(-c2ccc3ncnc(Nc4ccc(OCc5cccc(F)c5)c(Cl)c4)c3c2)o1 [Lapatinib] (partner 2 µM)
Data returned: 1.16

----------
# maps each entry to its relative viability
Test system: BEN
assay method text: relative viability (nuclei count vs DMSO), 5 days (fraction); higher = more cells survive
conditions used: first compound 8 µM

Worked examples, 3 compounds total:
CCCCCCCCCCCC1=C(O)C(=O)C=C(O)C1=O [Embelin] + Cc1nc(Nc2ncc(C(=O)Nc3c(C)cccc3Cl)s2)cc(N2CCN(CCO)CC2)n1 [Dasatinib] (partner 0.075 µM) = 0.362
CCCCCCCCCCCC1=C(O)C(=O)C=C(O)C1=O [Embelin] + Nc1nc2[nH]cc(CCc3ccc(C(=O)N[C@@H](CCC(=O)O)C(=O)O)cc3)c2c(=O)[nH]1 [Pemetrexed] (partner 0.2 µM) = 0.731
CCCCCCCCCCCC1=C(O)C(=O)C=C(O)C1=O [Embelin] + COc1cc2c(Oc3ccc(NC(=O)C4(C(=O)Nc5ccc(F)cc5)CC4)cc3F)ccnc2cc1OCCCN1CCOCC1 [Foretinib] (partner 0.25 µM) = 0.867

Now look at this entry.
Data request: Test system BEN; read-out relative viability; what value for CCCCCCCCCCCC1=C(O)C(=O)C=C(O)C1=O [Embelin] + Cc1nc(NC(=O)N2CCC[C@H]2C(N)=O)sc1-c1ccnc(C(C)(C)C(F)(F)F)c1 [Alpelisib] (partner 2 µM) ?
Data returned: 1.01

----------
System: LU99A
assay method text: relative viability (nuclei count vs DMSO), 5 days (fraction); higher = more cells survive
conditions used: first compound 1.265 µM
readout kind: relative viability
Output: the number by itself.

COc1cc(N2CCC(C(N)=O)CC2)ccc1Nc1nc(N)c(Cl)c(Nc2ccccc2S(=O)(=O)C(C)C)n1 [HG-5-88-01] + Cc1nc(Nc2ncc(C(=O)Nc3c(C)cccc3Cl)s2)cc(N2CCN(CCO)CC2)n1 [Dasatinib] (partner 0.075 µM) = 0.21

Okay, now this compound:
Data request: relative viability for Clc1ccc(Nc2nnc(Cc3ccncc3)c3ccccc23)cc1 [Vatalanib] + CC1(C)CCC(c2ccc(Cl)cc2)=C(CN2CCN(c3ccc(C(=O)NS(=O)(=O)c4ccc(N[C@H](CCN5CCOCC5)CSc5ccccc5)c(S(=O)(=O)C(F)(F)F)c4)cc3)CC2)C1 [Navitoclax] (partner 0.5 µM) ?
Data returned: 0.855

----------
System: NCI-H1563
assay method text: relative viability (nuclei count vs DMSO), 5 days (fraction); higher = more cells survive
conditions used: first compound 0.04 µM
readout kind: relative viability
Answer with a bare number; do not write a unit.

C[C@@H]1CN(CC(=O)Nc2ccc3c(c2)Cc2cccc(-c4cc(=O)cc(N5CCOCC5)o4)c2S3)C[C@H](C)O1 + Cc1nc(NC(=O)N2CCC[C@H]2C(N)=O)sc1-c1ccnc(C(C)(C)C(F)(F)F)c1 [Alpelisib] (partner 2 µM) = 0.942

Data request: Quick check: relative viability of Clc1ccc(Nc2nnc(Cc3ccncc3)c3ccccc23)cc1 [Vatalanib] + Nc1nc2[nH]cc(CCc3ccc(C(=O)N[C@@H](CCC(=O)O)C(=O)O)cc3)c2c(=O)[nH]1 [Pemetrexed] (partner 0.2 µM) ?
Data returned: 0.804

----------
Measured relative viability, listed per entry for reference.
Tested on: EKVX
assay method text: relative viability (nuclei count vs DMSO), 5 days (fraction); higher = more cells survive
conditions used: first compound 0.03162 µM
I only need the number, thanks.

# example entries with known answers
CC(C)Oc1cc(Nc2nc(N[C@@H](C)c3ccc(F)cn3)ncc2Cl)n[nH]1 [AZ23] + Cc1cc(Nc2cc(N3CCN(C)CC3)nc(Sc3ccc(NC(=O)C4CC4)cc3)n2)n[nH]1 [Tozasertib] (partner 0.1 µM) = 0.458
CC(C)Oc1cc(Nc2nc(N[C@@H](C)c3ccc(F)cn3)ncc2Cl)n[nH]1 [AZ23] + Nc1ncn([C@H]2C[C@H](O)[C@@H](CO)O2)c(=O)n1 [Decitabine] (partner 2 µM) = 0.365
CC(C)Oc1cc(Nc2nc(N[C@@H](C)c3ccc(F)cn3)ncc2Cl)n[nH]1 [AZ23] + CC(=O)c1c(C)c2cnc(Nc3ccc(N4CCNCC4)cn3)nc2n(C2CCCC2)c1=O [Palbociclib] (partner 0.5 µM) = 0.414

Data request: Which relative viability is listed for CC(C)Oc1cc(Nc2nc(N[C@@H](C)c3ccc(F)cn3)ncc2Cl)n[nH]1 [AZ23] + O=C(CCCCCCC(=O)Nc1ccccc1)NO [Vorinostat] (partner 1 µM) ?
Data returned: 0.683

Data request: For the compound shown here, CC(C)Oc1cc(Nc2nc(N[C@@H](C)c3ccc(F)cn3)ncc2Cl)n[nH]1 [AZ23] + O=C(c1cc(Cc2n[nH]c(=O)c3ccccc23)ccc1F)N1CCN(C(=O)C2CC2)CC1 [Olaparib] (partner 8 µM) , give the reported relative viability.
Data returned: 0.97

Data request: Requested read-out: relative viability. Entry: CC(C)Oc1cc(Nc2nc(N[C@@H](C)c3ccc(F)cn3)ncc2Cl)n[nH]1 [AZ23] + COc1cccc2cc(-c3nc([C@H]4CC[C@H](C(=O)O)CC4)n4ncnc(N)c34)[nH]c12 [OSI-027] (partner 0.5 µM)
Data returned: 0.636
